# Measured On: T1, human PVRIG expressed on cells (human, UniProt Q6DKI7 41-326)
# T1 construct: whole, on cells; also called Human PVRIG FACS; cells overexpressing human PVRIG
# T1 sequence (looked up): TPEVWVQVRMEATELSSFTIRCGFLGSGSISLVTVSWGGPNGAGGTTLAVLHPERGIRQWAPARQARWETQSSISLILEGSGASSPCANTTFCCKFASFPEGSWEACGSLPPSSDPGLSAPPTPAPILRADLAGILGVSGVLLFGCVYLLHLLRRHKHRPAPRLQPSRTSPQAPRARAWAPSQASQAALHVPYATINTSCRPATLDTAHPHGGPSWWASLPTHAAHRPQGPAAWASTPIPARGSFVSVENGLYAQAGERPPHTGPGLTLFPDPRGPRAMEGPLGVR
# Run Description: FACS, HEK293 cells overexpressing target
Each entry below lists one item and its recorded EC50 value.

Binder	Measure Unit	EC50
humanized anti-PVRIG antibody 20H2 (antibody, human IgG4 S228P, F234A L235A, V domains shown) VH: EVQLVESGGGLVQPGGSLRLSCAASGFTSRTDCMGWFRQAPGKGLEGVAHIDSDGIPRYVDSVKGRFTISRDNAKNSLYLQMNSLRAEDTAVYYCVVGFKFDEDYCAPNDWGQGTMVTVSS	pM	6
humanized anti-PVRIG antibody 39H2 (antibody, human IgG4 S228P, F234A L235A, V domains shown) VH: EVQLVESGGGLVQPGGSLRLSCAASGFTSRTDCMGWFRQAPGKGLEGVAHIDSDGIPRYVESVKGRFTISRDNAKNSLYLQMNSLRAEDTAVYYCVVGFKFGDYCAPNDWGQGTMVTVSS	pM	6
humanized anti-PVRIG antibody 39H5 (antibody, human IgG4 S228P, F234A L235A, V domains shown) VH: EVQLVESGGGLVQPGGSLRLSCAASGYTSRTDCMGWFRQAPGKEREGVAHIDSDGIPRYVESVKGRFTISQDHAKNSLYLQMNSLRAEDTAVYYCVVGFKFGDYCAPNDWGQGTMVTVSS	pM	6
humanized anti-PVRIG antibody 20H5 (antibody, human IgG4 S228P, F234A L235A, V domains shown) VH: EVQLVESGGGLVQPGGSLRLSCAASGYTSRTDCMGWFRQAPGKEHEGVAHIDSDGIPRYVDSVKGRFTISQDHAKNSLYLQMNSLRAEDTAVYYCVVGFKFDEDYCAPNDWGQGTMVTVSS	pM	5
positive antibody Tab5 (antibody, human IgG4 S228P, kappa, F234A L235A, V domains shown, Variable regions of CPA.7.021 (WO2016134333A1) on human IgG4 (S228P/F234A/L235A/K447A) and human kappa constant regions) VH: EVQLVESGGGVVKPGGSLRLSCAASGFTFGTSSMNWVRQAPGKGLEWVAVISFDGTEIHYADSVKGRFTISRDNSKSTVFLQMNSLRPDDTALYYCAKGSGNIYFYSGMDVWGQGTTVTVSS VL: DIQMTQSPSTLSASVGDRVTITCRAGQSISGWLAWFQQKPGKAPNLLIYETSTLESGVPSRFSGSGSGTEYTLTISSLQPDDFATYYCQQYYSYPLTFGQGTKVEIKR	pM	160
humanized anti-PVRIG antibody 38H8 (antibody, human IgG4 S228P, F234A L235A, V domains shown) VH: EVQLVESGGGVVQPGGSLRLSCAASPSTYGPSDMAWFRQAPGKGLEGVATISAAGRLTYYTDSVRGRFTISRDNSKNTLYLQMNSLRAEDTAVYYCAADFAGGSSLFADYKYWGQGTMVTVSS	pM	65
